# SYSTEM_UNDER_TEST: ECHANGEUR D'ANIONS (Homo sapiens, UniProt P02730)
# Construct: systèmes de transport du sodium et du potassium des érythrocytes humains; endogenous in cells
# Sequence (P02730 whole entry): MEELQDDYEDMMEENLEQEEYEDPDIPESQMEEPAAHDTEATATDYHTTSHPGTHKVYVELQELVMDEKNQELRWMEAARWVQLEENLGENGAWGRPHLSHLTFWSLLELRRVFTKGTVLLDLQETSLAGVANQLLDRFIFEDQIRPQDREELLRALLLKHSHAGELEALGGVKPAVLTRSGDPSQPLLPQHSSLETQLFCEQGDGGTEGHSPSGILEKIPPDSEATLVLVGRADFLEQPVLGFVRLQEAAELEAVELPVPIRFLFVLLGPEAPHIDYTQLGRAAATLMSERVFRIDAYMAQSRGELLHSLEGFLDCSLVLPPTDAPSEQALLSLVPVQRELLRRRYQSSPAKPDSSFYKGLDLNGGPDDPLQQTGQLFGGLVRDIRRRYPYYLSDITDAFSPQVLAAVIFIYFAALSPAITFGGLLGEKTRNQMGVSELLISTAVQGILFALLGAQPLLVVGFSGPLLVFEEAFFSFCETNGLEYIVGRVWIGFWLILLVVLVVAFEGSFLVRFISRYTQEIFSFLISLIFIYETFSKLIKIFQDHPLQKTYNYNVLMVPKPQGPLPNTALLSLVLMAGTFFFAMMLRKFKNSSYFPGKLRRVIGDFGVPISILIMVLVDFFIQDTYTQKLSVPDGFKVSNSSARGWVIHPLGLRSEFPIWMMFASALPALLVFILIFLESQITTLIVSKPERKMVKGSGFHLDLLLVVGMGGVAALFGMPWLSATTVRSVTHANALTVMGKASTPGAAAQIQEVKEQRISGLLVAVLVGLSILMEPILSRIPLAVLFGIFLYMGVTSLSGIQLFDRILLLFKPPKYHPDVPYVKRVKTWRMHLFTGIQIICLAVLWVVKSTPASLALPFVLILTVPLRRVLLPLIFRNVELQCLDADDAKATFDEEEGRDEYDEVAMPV
# ASSAY_DETAILS: Anion exchanger of human erythrocytes
# RECORDED_CONDITIONS: read-out: EFFET SUR L'ECHANGEUR D'ANIONS IC 50
pIC50: −log10 of the molar value.
VALUE_KIND: pIC50

>>> observed_value("CC(COc1ccc(F)cc1)c1ccccc1O (stereo not shown)")
4.12
>>> observed_value("Oc1c(CCOc2ccc(F)cc2)ccc2ccccc12")
3.70
>>> observed_value("Cc1cccc(C)c1NC(=O)c1cc(S(N)(=O)=O)c(Cl)cc1O [XIPAMIDE, reference compound]")
4.60
>>> observed_value("Oc1ccccc1CCOc1ccc2ccccc2c1")
3.70

The values you see were collected from patent EP0428423A2.
